# ASSAY PROCEDURE: Ratio of drug uptake in brain to plasma of C57 mouse at 3 mg/kg, po after 20 hrs by LC/MS analysis
# Type: ADME, organism-based
# Parameters: dose 3 mg/kg, route oral
# REPORTED CONDITIONS: read-out: BPR
PROPERTY NAME: Kp at 20 h
Returns: the value as a bare number; no unit string appended.

Please report Kp at 20 h for the following molecule: C[C@@]1(N)C[C@H](C(=O)N2CCC(c3ccnn3-c3ccc(F)c(Cl)c3)CC2)[C@@H](c2ccc(F)cc2F)C1
0.18

###

# TESTED ON: Mus musculus
# ASSAY PROCEDURE: Ex-vivo inhibition of po dosed mouse PrCP by FRET analysis in presence of heat inactivated 25% plasma
# Format: functional, organism-based
For each of the molecules below, state its pKi.
Please express pKi as -log10 of the molar concentration.

Quote Mus musculus pKi for entry Cc1cc(C2CCN(C(=O)[C@@H]3C[C@@](C)(N)C[C@H]3c3ccc(F)cc3F)CC2)n(-c2cc(Cl)ccc2Cl)n1 .
8.68

Quote Mus musculus pKi for entry Cc1nc(C2CCN(C(=O)[C@@H]3C[C@@](C)(N(C)C)C[C@H]3c3ccc(F)cc3F)CC2)n(-c2cc(Cl)ccc2Cl)n1 .
9.00

Quote Mus musculus pKi for entry Cc1cc(C2CCN(C(=O)[C@@H]3C[C@@](C)(N)C[C@H]3c3ccc(F)cc3F)CC2)n(-c2ccc(F)c(Cl)c2)n1 .
8.43

Quote Mus musculus pKi for entry C[C@@]1(N)C[C@H](C(=O)N2CCC(c3ccnn3-c3ccc(F)c(Cl)c3)CC2)[C@@H](c2ccc(F)cc2F)C1 .
8.82

Quote Mus musculus pKi for entry Cc1nc(C2CCN(C(=O)[C@@H]3C[C@@](C)(N)C[C@H]3c3ccc(F)cc3F)CC2)n(-c2ccc(F)c(Cl)c2)n1 .
8.34

###

# ASSAY PROCEDURE: Stability in human liver microsomes after 30 mins by LC/MS analysis
# Format: ADME, Microsome
# REPORTED CONDITIONS: read-out: Stability
For each of the compounds below, state its remaining at 0.5 h.

Please report remaining at 0.5 h for the following compound: Cc1cc(C2CCN(C(=O)[C@@H]3C[C@@](C)(N(C)C)C[C@H]3c3ccc(F)cc3F)CC2)n(-c2cc(Cl)ccc2Cl)n1
12%

Please report remaining at 0.5 h for the following compound: C[C@]1(N)C[C@H](C(=O)N2CCC(c3ccnn3-c3ccc(F)c(Cl)c3)CC2)[C@@H](c2ccc(F)cc2F)C1
33%

Please report remaining at 0.5 h for the following compound: CN(C)[C@]1(C)C[C@H](C(=O)N2CCC(c3ccnn3-c3ccc(F)c(Cl)c3)CC2)[C@@H](c2ccc(F)cc2F)C1
1%

Please report remaining at 0.5 h for the following compound: CN(C)[C@@]1(C)C[C@H](C(=O)N2CCC(c3ccnn3-c3ccc(F)c(Cl)c3)CC2)[C@@H](c2ccc(F)cc2F)C1
2%

Please report remaining at 0.5 h for the following compound: Cc1nc(C2CCN(C(=O)[C@@H]3C[C@@](C)(N(C)C)C[C@H]3c3ccc(F)cc3F)CC2)n(-c2ccc(Cl)c(C)c2)n1
27%

###

# ASSAY PROCEDURE: Oral bioavailability in mouse at 30 mg/kg
# Type: ADME, organism-based
# REPORTED CONDITIONS: in vivo
For each of the compounds below, state its bioavailability.
# answer = value followed by unit

Please report bioavailability for the following compound: Cc1cc(C2CCN(C(=O)[C@@H]3CN(C(C)(C)C)C[C@H]3c3ccc(F)cc3F)CC2)n(-c2cc(Cl)ccc2Cl)n1
31%

Please report bioavailability for the following compound: Cc1nc(C2CCN(C(=O)[C@@H]3CN(C(C)(C)C)C[C@H]3c3ccc(F)cc3F)CC2)n(-c2ccc(Cl)c(C)c2)n1
20%

Please report bioavailability for the following compound: Cc1cc(C2CCN(C(=O)[C@@H]3C[C@@](C)(N)C[C@H]3c3ccc(F)cc3F)CC2)n(-c2ccc(F)c(Cl)c2)n1
57%
